system: MDA-MB-231 (triple-negative breast cancer cell line, TNBC); experiment: MTT cytotoxicity assay, MDA-MB-231 cell line; details: Homo sapiens, MDA-MB-231, read-out: IC50 (μM) ± S.E.M MDA-MB-231 (cytotoxicity), MTT assay, MDA-MB-231 cells
Assign labels as follows, please: satisfied for IC50 below 20 µM; not satisfied for IC50 equal to or exceeding 20 µM.

A selection of reference data follows.
COC(=O)Cc1cc(=O)oc2cc(OC)ccc12	satisfied
COc1ccc2c(CC(=O)Nc3ccc(OC)c(O)c3)cc(=O)oc2c1	satisfied
COc1ccc2c(CC(=O)Nc3ccccc3)cc(=O)oc2c1	satisfied
COc1ccc2c(CC(=O)Nc3ccc(Br)cc3)cc(=O)oc2c1	not satisfied
COC(=O)Cc1cc(=O)oc2ccc(OC)cc12	not satisfied
COc1ccc2c(CC(=O)O)cc(=O)oc2c1	not satisfied
COc1ccc2oc(=O)cc(CC(=O)N3CCCCC3)c2c1	not satisfied
CC[C@@]1(O)C(=O)OCc2c1cc1n(c2=O)Cc2cc3ccccc3nc2-1 [Camptothecin, reference compound]	satisfied

hey, is IC50 for `COc1ccc2oc(=O)cc(CC(=O)Nc3ccc(OC)c(O)c3)c2c1` lower than 20 µM or not?
satisfied

Moving on to the next compound: `COc1ccc2oc(=O)cc(CC(=O)O)c2c1`
not satisfied

Moving on to the next compound: `COc1ccc2oc(=O)cc(CC(=O)Nc3ccc(Br)cc3)c2c1`
not satisfied

Moving on to the next compound: `COc1ccc2oc(=O)cc(CC(=O)Nc3ccccc3)c2c1`
satisfied

Moving on to the next compound: `COc1ccc2c(CC(=O)N3CCCCC3)cc(=O)oc2c1`
satisfied

* * *

target: aromatase (Homo sapiens, UniProt P11511); assay: In vitro aromatase inhibition (sandwich enzyme immunoassay); conditions: IC50 (μM) ± S.E.M. (aromatase inhibition activity)
Sequence (P11511 whole entry): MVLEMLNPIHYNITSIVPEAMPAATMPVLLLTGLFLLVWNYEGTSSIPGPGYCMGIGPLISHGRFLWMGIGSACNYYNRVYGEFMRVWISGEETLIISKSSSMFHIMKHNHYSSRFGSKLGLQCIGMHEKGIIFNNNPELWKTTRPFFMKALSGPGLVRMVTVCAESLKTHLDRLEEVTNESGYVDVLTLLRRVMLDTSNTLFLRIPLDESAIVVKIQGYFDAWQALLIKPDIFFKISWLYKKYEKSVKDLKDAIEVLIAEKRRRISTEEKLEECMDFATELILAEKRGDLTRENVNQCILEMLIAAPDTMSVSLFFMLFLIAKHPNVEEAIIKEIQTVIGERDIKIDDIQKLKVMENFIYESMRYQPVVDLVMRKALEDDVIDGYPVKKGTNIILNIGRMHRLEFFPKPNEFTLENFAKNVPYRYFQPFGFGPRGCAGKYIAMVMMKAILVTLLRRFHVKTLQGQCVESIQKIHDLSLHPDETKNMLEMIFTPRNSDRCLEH
property.label: log10 IC50 (log10 of the value in µM)
Friendly reminder: values = log10 of IC50, unit µM.

// worked examples, log10 IC50 included
COc1ccc2oc(=O)cc(CC(=O)Nc3ccccc3)c2c1	3.04
COc1ccc2oc(=O)cc(CC(=O)Nc3ccc(Br)cc3)c2c1	1.84
COc1ccc2oc(=O)cc(CC(=O)O)c2c1	1.51

Hello, I am looking for reported log10 IC50 with aromatase (Homo sapiens, UniProt P11511) for `COc1ccc2oc(=O)cc(CC(=O)N3CCCCC3)c2c1` . Could you help?
1.35

Moving on to the next compound: `COc1ccc2c(CC(=O)N3CCCCC3)cc(=O)oc2c1`
1.95

Moving on to the next compound: `COc1ccc2oc(=O)cc(CC(=O)Nc3ccc(OC)c(O)c3)c2c1`
1.24

Moving on to the next compound: `COc1ccc2c(CC(=O)Nc3ccccc3)cc(=O)oc2c1`
2.52

Moving on to the next compound: `COC(=O)Cc1cc(=O)oc2cc(OC)ccc12`
1.16

Moving on to the next compound: `COc1ccc2c(CC(=O)Nc3ccc(Br)cc3)cc(=O)oc2c1`
1.43

* * *

system: estrogen-dependent human breast cancer MCF-7 cell proliferation induced by 17-β-estradiol; assay: In vitro antiestrogenic activity: MCF-7 cell proliferation assay (MTT) in the presence of 17-β-estradiol; type: cell-based; settings: inhibition of MCF-7 cell proliferation induced by 17-β-estradiol; read-out: IC50 (μM) ± S.E.M. MCF-7 (in vitro antiestrogenic activity)
property.label: IC50
# output: numeric value plus its unit

Hello, I am looking for reported IC50 with estrogen-dependent human breast cancer MCF-7 cell proliferation induced by 17-β-estradiol for CC(C)COC(=O)c1ccccc1C(=O)O [Monoisobutyl phthalate (MIBP), Monoisobutyl phthalate, reference compound] . Could you help?
46.4 µM

Provenance of the data: paper PMC7181245
